Biological target: Casein kinase I isoform alpha (Homo sapiens);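 note: values are the mean percent inhibition of CK1a, averaged over measurements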
Details: at 0.1 µM
Entries and their inhibition values follow.
Your answer should be a plain number; it is taken to be in %.

Sample answers from the record:
Q: Bench note: what inhibition did "CN(C)CCCNc1nccc(-c2c(-c3ccc(F)cc3)nn3cc(C(F)(F)F)ccc23)n1" show?
Result: 1.35

Q: Bench note: what inhibition did "CN(C)CCOc1ccc(-c2cc(-c3ccc4c(c3)CCC4=NO)c(-c3ccncc3)o2)cc1" show?
Result: -1.99

Q: Bench note: what inhibition did "CN1CCN(CCCNc2nc3ccc(Oc4ccc(NC(=O)Nc5cc(C(F)(F)F)ccc5F)cc4)cc3[nH]2)CC1" show?
Result: 1.84

Q: Bench note: what inhibition did "CCc1ccc(Oc2nccc(-c3c(-c4ccc(F)cc4)ncn3C3CCNCC3)n2)cc1" show?
Result: 6.84

Q: Bench note: what inhibition did "CCC(=O)Nc1ccc(C)c(-c2ccc(C(=O)NCC3CC3)cc2)c1" show?
Result: 2.53

Next:
Q: Bench note: what inhibition did "COc1cccc(/C=N/Nc2ncnc3c2cnn3-c2cccc(OC)c2)c1" show?
Result: 3.37

Q: Bench note: what inhibition did "c1ccc(Oc2ccc(Nc3ncc(-c4ccccc4)o3)cc2)cc1" show?
Result: 5.38

Q: Bench note: what inhibition did "COc1cc2ncn(-c3cc(OCc4cccs4)c(C(N)=O)s3)c2cc1OC" show?
Result: 2

Q: Bench note: what inhibition did "Fc1ccc(-c2ncn(C3CCNCC3)c2-c2ccnc(Oc3ccc4c(c3)OCO4)n2)cc1" show?
Result: 6.52

Q: Bench note: what inhibition did "O=C(Nc1n[nH]c2cc(-c3ccccc3)ccc12)C1CC1" show?
Result: 3.51

Q: Bench note: what inhibition did "C[C@@H](Oc1cc(-n2cnc3ccc(OC4CCN(C)CC4)cc32)sc1C(N)=O)c1ccccc1Cl" show?
Result: 4.09

Q: Bench note: what inhibition did "CS(=O)(=O)CCNCc1cc(-c2cc3c(Nc4ccc(OCc5cccc(F)c5)c(Cl)c4)ncnc3s2)cs1" show?
Result: 6.3

---

System: Tyrosine-protein kinase ABL1 (Homo sapiens), P00519 [Y253F]
Details: at 1 µM
Entries and their inhibition values follow.
Don't forget the unit after the value.

Q: Bench note: what inhibition did "CN1CCN(CCCNc2nc3ccc(Oc4ccc(NC(=O)Nc5cc(C(F)(F)F)ccc5F)cc4)cc3[nH]2)CC1" show?
Result: 10.8%

Next:
Q: Bench note: what inhibition did "NC(=O)c1cc(-c2ccc(F)cc2)cc(-c2ccncc2)c1N" show?
Result: 5.14%

Q: Bench note: what inhibition did "c1ccc(-c2n[nH]cc2-c2ccnc(-c3ccc(OCCN4CCOCC4)cc3)c2)nc1" show?
Result: 57.1%

Q: Bench note: what inhibition did "COc1cc(Nc2ncc3c(C)nc(-c4cccc(Oc5ccccc5)c4)n3n2)cc(OC)c1OC" show?
Result: 2.77%

Q: Bench note: what inhibition did "COc1cc(Nc2ncc(-c3ccccc3)o2)cc(OC)c1OC" show?
Result: 69.2%

---

Molecular target: Serine/threonine-protein kinase Sgk1 (Homo sapiens) (UniProt O00141)
Sequence (whole entry): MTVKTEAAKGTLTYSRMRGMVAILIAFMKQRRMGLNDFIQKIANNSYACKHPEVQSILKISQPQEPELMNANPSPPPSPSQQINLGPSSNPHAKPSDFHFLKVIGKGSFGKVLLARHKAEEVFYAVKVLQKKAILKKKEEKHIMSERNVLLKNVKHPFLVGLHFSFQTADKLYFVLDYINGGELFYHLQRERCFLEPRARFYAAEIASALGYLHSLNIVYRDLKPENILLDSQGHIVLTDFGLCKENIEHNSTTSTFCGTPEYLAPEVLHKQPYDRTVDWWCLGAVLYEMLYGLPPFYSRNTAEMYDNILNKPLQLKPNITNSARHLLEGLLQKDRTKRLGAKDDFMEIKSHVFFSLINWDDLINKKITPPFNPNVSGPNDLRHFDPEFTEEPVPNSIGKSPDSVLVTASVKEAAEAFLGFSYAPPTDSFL
Settings: at 0.1 µM
Description: GSK_PKIS: SGK1 mean inhibition at 0.1 uM [Nanosyn]
Entries and their inhibition values follow.
Your answer should be a plain number; it is taken to be in %.

Q: Hello, I am looking for reported inhibition with Serine/threonine-protein kinase Sgk1 (Homo sapiens) (UniProt O00141) for "Fc1ccc(-c2ncn(C3CCNCC3)c2-c2ccnc(Oc3ccc4c(c3)OCO4)n2)cc1" . Could you help?
Result: 3.72

Q: Hello, I am looking for reported inhibition with Serine/threonine-protein kinase Sgk1 (Homo sapiens) (UniProt O00141) for "COc1cc2ncn(-c3cc(OCc4ccccc4C(F)(F)F)c(C(C)=O)s3)c2cc1OC" . Could you help?
Result: 2.88

Q: Hello, I am looking for reported inhibition with Serine/threonine-protein kinase Sgk1 (Homo sapiens) (UniProt O00141) for "C[C@@H](Oc1cc(-n2cnc3ccc(OC4CCN(C)CC4)cc32)sc1C(N)=O)c1ccccc1Cl" . Could you help?
Result: 1.16

Q: Hello, I am looking for reported inhibition with Serine/threonine-protein kinase Sgk1 (Homo sapiens) (UniProt O00141) for "CCN(CC)Cc1ccc(Nc2nccc(-c3cnn4ncccc34)n2)cc1" . Could you help?
Result: 1.11

Q: Hello, I am looking for reported inhibition with Serine/threonine-protein kinase Sgk1 (Homo sapiens) (UniProt O00141) for "CCc1ccc(Oc2nccc(-c3c(-c4ccc(F)cc4)ncn3C3CCNCC3)n2)cc1" . Could you help?
Result: -1.02

Next:
Q: Hello, I am looking for reported inhibition with Serine/threonine-protein kinase Sgk1 (Homo sapiens) (UniProt O00141) for "COc1cccc(-n2cnc3c(N/N=C/c4ccncc4)ncnc32)c1" . Could you help?
Result: 1.3

Q: Hello, I am looking for reported inhibition with Serine/threonine-protein kinase Sgk1 (Homo sapiens) (UniProt O00141) for "O=C(Nc1ccc(Oc2ccc3[nH]c(NC(=O)c4ccccc4)nc3c2)cc1)Nc1cc(C(F)(F)F)ccc1F" . Could you help?
Result: 1.68

Q: Hello, I am looking for reported inhibition with Serine/threonine-protein kinase Sgk1 (Homo sapiens) (UniProt O00141) for "COC(=O)Nc1nc2ccc(Sc3ccc(NC(=O)Nc4cc(C(F)(F)F)ccc4F)cc3)cc2[nH]1" . Could you help?
Result: 0.54

Q: Hello, I am looking for reported inhibition with Serine/threonine-protein kinase Sgk1 (Homo sapiens) (UniProt O00141) for COc1ccc2cc(-c3c(-c4ccncc4)nc(-c4ccc([S+](C)[O-])cc4C)n3C)ccc2c1 (centres undefined) . Could you help?
Result: -0.3
